Tested on: HEK-293T
Experimental Details: Multiplex assay against HEK293T
Format: toxicity, cell-based
Recorded Conditions: human, 24 h, 10 µM, compound concentration 10 uM, replicate 1
# key: entry, value: Population Membrane Permeable-Phenotype (%)

# annotated cases, reported Population Membrane Permeable-Phenotype (%) shown
{"columns": ["Compound", "System", "Recorded Measurement"],
 "data": [
  ["COc1c(C)cc(NC(=O)c2nn(Cc3ccc(F)cc3)c3c2CN(C(=O)c2ccc[nH]2)C[C@]3(C)C(N)=O)cc1C", "HEK-293T", "0%"],
  ["N[C@@]1(C(=O)O)CO[C@H]2[C@H](C(=O)O)[C@H]21", "HEK-293T", "0%"],
  ["CN(C)CCCc1cc(C(=O)Nc2ccc(-c3ccncc3)cc2)ccc1O.Cl.Cl", "HEK-293T", "0%"],
  ["C[C@@H]1C[C@H]2[C@@H]3CCC4=CC(=O)C=C[C@]4(C)[C@@]3(F)[C@@H](O)C[C@]2(C)[C@@]1(O)C(=O)CO", "HEK-293T", "0%"],
  ["COc1ccc2c(c1)C(C(=O)N(Cc1ccc(N(C)C)cc1)c1ccc(C(C)C)cc1)CCC2.Cl (stereo unspecified)", "HEK-293T", "1%"]
]}

Could you tell me which Population Membrane Permeable-Phenotype (%) is on file for CCNC1(C(N)=O)CCN(c2ncnc3c2nc(-c2ccccc2Cl)n3-c2ccc(Cl)cc2)CC1 ?
1%

Could you tell me which Population Membrane Permeable-Phenotype (%) is on file for Cl.Clc1ccc2nsnc2c1NC1=NCCN1 [TIZANIDINE HYDROCHLORIDE] ?
1%

Could you tell me which Population Membrane Permeable-Phenotype (%) is on file for O=C1COc2nccc(-c3ccccc3F)c2CN1Cc1cc(C(F)(F)F)cc(C(F)(F)F)c1 ?
0%

Could you tell me which Population Membrane Permeable-Phenotype (%) is on file for CN(C)c1ccnc2sc3c(=O)n(N4CCCCCC4)cnc3c12 ?
0%

Could you tell me which Population Membrane Permeable-Phenotype (%) is on file for N#Cc1c(N)nc(SCc2csc(-c3ccc(Cl)cc3)n2)c(C#N)c1-c1ccc(OCCO)cc1 ?
0%

Could you tell me which Population Membrane Permeable-Phenotype (%) is on file for Cc1ccc(F)cc1C(=O)Nc1ccc(C(=O)N2Cc3cccn3Cc3ccccc32)c(Cl)c1 ?
0%

Could you tell me which Population Membrane Permeable-Phenotype (%) is on file for CCCC(CCC)C(=O)O ?
0%

Could you tell me which Population Membrane Permeable-Phenotype (%) is on file for COc1cc(NC(=O)CCN2CCC(OC(=O)Nc3ccccc3-c3ccccc3)CC2)c(Cl)cc1CNC[C@H](O)c1ccc(O)c2[nH]c(=O)ccc12 ?
0%

Could you tell me which Population Membrane Permeable-Phenotype (%) is on file for CC(C)(C)c1ccc(S(=O)(=O)Nc2ccc(Cl)cc2C(=O)c2cc[n+]([O-])cc2)cc1 ?
1%

Could you tell me which Population Membrane Permeable-Phenotype (%) is on file for c1cc(OCCCN2CCCCC2)ccc1CN1CCCCC1 ?
1%

Could you tell me which Population Membrane Permeable-Phenotype (%) is on file for Cc1ccccc1C(=O)Nc1ccc(C(=O)N2CCCC(N(C)C)c3ccccc32)cc1.Cl (stereo unspecified) ?
0%

Could you tell me which Population Membrane Permeable-Phenotype (%) is on file for COc1cc(C(=O)N(CCCc2ccccc2)Cc2ccc(CC(=O)O)cc2)cc(OC)c1C ?
0%

Could you tell me which Population Membrane Permeable-Phenotype (%) is on file for CCOc1c2c(c(OCC)c3ncccc13)CN(c1ccc(CS(=O)(=O)NC(=O)Cc3ccccc3OC)cc1C)C2=O ?
0%

Could you tell me which Population Membrane Permeable-Phenotype (%) is on file for CN1CCN(c2nc3cc(C(F)(F)F)ccc3n3cccc23)CC1.O=C(O)/C=C\C(=O)O.O=C(O)/C=C\C(=O)O ?
0%

---

Tested on: Fibroblast
Experimental Details: Multiplex assay against human fibroblast
Assay type: toxicity, cell-based
Recorded Conditions: 48 h, 1 µM, compound concentration 1 uM, replicate 2
# key: entry, value: Population Hoechst High Intensity Objects (%)

# annotated cases, reported Population Hoechst High Intensity Objects (%) shown
{"columns": ["Molecule", "Recorded Measurement"],
 "data": [
  ["COc1cc(C(=O)N(CCCc2ccccc2)Cc2ccc(CC(=O)O)cc2)cc(OC)c1C", "2%"],
  ["Cc1ccc(/C(=C\\CN2CCCC2)c2ccccn2)cc1", "7%"],
  ["CN1CCN2c3ncccc3Cc3ccccc3C2C1 (centres undefined)", "2%"]
]}

Could you now look at the following molecule, please?
Could you tell me which Population Hoechst High Intensity Objects (%) is on file for O=C(O)c1cc2ccccc2c(Cc2c(O)c(C(=O)O)cc3ccccc23)c1O ?
3%

---

System: Fibroblast
Experimental Details: Multiplex assay against human fibroblast
Assay type: toxicity, cell-based
Recorded Conditions: 12 h, 1 µM, compound concentration 1 uM, replicate 2
Population Healthy Nuclei (%) under 50% gets true, anything at or over 50% gets false.

{"columns": ["Compound", "Answer Label"],
 "data": [
  ["CNC[C@H](O)c1ccc(O)c(O)c1 [EPINEPHRINE]", "true"],
  ["Cc1ccc(/C(=C\\CN2CCCC2)c2ccccn2)cc1 [TRIPROLIDINE]", "true"],
  ["O=C(O)c1cc2ccccc2c(Cc2c(O)c(C(=O)O)cc3ccccc23)c1O [PAMOIC ACID]", "false"],
  ["CN1CCN(c2nc3cc(C(F)(F)F)ccc3n3cccc23)CC1.O=C(O)/C=C\\C(=O)O.O=C(O)/C=C\\C(=O)O", "true"],
  ["C[C@H]1[C@H]2CC[C@H]3[C@@H]4CC=C5C[C@@H](N(C)C)CC[C@]5(C)[C@H]4CC[C@]23CN1C [CONESSINE]", "true"]
]}

Below 50% on Population Healthy Nuclei (%)? Entry COc1cc(NC(=O)CCN2CCC(OC(=O)Nc3ccccc3-c3ccccc3)CC2)c(Cl)cc1CNC[C@H](O)c1ccc(O)c2[nH]c(=O)ccc12 [BATEFENTEROL]
false

Below 50% on Population Healthy Nuclei (%)? Entry Oc1c(CN2CCN(c3ccccn3)CC2)cc(Cl)c2cccnc12
false

Below 50% on Population Healthy Nuclei (%)? Entry O=C1COc2nccc(-c3ccccc3F)c2CN1Cc1cc(C(F)(F)F)cc(C(F)(F)F)c1
false

---

Tested on: Fibroblast
Experimental Details: Multiplex assay against human fibroblast
Assay type: toxicity, cell-based
Recorded Conditions: 12 h, 1 µM, compound concentration 1 uM, replicate 1
# key: entry, value: Population Mitochondria Different-Phenotype (%)
Numbers only here, please. The scale is %.

{"columns": ["Compound", "System", "Recorded Measurement"],
 "data": [
  ["COc1ccc2c(c1)C(C(=O)N(Cc1ccc(N(C)C)cc1)c1ccc(C(C)C)cc1)CCC2.Cl (stereo unspecified)", "Fibroblast", 7],
  ["CN(C)CCCc1cc(C(=O)Nc2ccc(-c3ccncc3)cc2)ccc1O.Cl.Cl", "Fibroblast", 7],
  ["CSCC[C@H](NC=O)C(=O)N[C@@H](CC(C)C)C(=O)N[C@@H](Cc1ccccc1)C(=O)O", "Fibroblast", 3]
]}

Could you now look at the following compound, please?
Could you tell me which Population Mitochondria Different-Phenotype (%) is on file for Cc1ccc(F)cc1C(=O)Nc1ccc(C(=O)N2Cc3cccn3Cc3ccccc32)c(Cl)c1 ?
3

---

Tested on: HEK-293T
Experimental Details: Multiplex assay against HEK293T
Format: toxicity, cell-based
Recorded Conditions: human, 12 h, 10 µM, compound concentration 10 uM, replicate 1
# key: entry, value: Population Normal (%)
Numbers only here, please. The scale is %.

Could you tell me which Population Normal (%) is on file for CC[C@H]1OC(=O)[C@H](C)[C@@H](O[C@H]2C[C@@](C)(OC)[C@@H](O)[C@H](C)O2)[C@H](C)[C@@H](O[C@@H]2O[C@H](C)C[C@H](N(C)C)[C@H]2O)[C@@]2(C)CC(C)=C(O2)[C@H](C)[C@@H](O)[C@]1(C)O ?
86

---

Test system: Fibroblast
Experimental Details: Multiplex assay against human fibroblast
Assay type: toxicity, cell-based
Recorded Conditions: 12 h, 1 µM, compound concentration 1 uM, replicate 1
Population Mitotic Cells (%) under 60% gets Yes, anything at or over 60% gets No.

{"columns": ["Molecule", "Answer Label"],
 "data": [
  ["O=S(=O)(c1ccccc1)c1cnc2c(N3CCNCC3)cccc2c1 [INTEPIRDINE]", "Yes"],
  ["Cc1ccc(C(C)(O)c2nc3ccccc3s2)c(C)c1 (stereo not given)", "Yes"],
  ["CN1CCN(c2nc3cc(C(F)(F)F)ccc3n3cccc23)CC1.O=C(O)/C=C\\C(=O)O.O=C(O)/C=C\\C(=O)O", "Yes"],
  ["O=C(NCCO)c1cccc(-c2cc(Nc3ccc(OC(F)(F)F)cc3)ncn2)c1", "Yes"],
  ["COc1cc(NC(=O)CCN2CCC(OC(=O)Nc3ccccc3-c3ccccc3)CC2)c(Cl)cc1CNC[C@H](O)c1ccc(O)c2[nH]c(=O)ccc12", "Yes"]
]}

Below 60% on Population Mitotic Cells (%)? Entry CC1(COc2ccc3c(c2)ncn3-c2ccc3cccc(N4CCC(N)CC4)c3n2)COC1
Yes

Below 60% on Population Mitotic Cells (%)? Entry CCCN1CCC[C@@H]2Cc3n[nH]cc3C[C@H]21.Cl [QUINPIROLE HYDROCHLORIDE]
Yes

Below 60% on Population Mitotic Cells (%)? Entry CNC[C@H](O)c1ccc(O)c(O)c1 [EPINEPHRINE]
No

Below 60% on Population Mitotic Cells (%)? Entry COc1c(C)cc(NC(=O)c2nn(Cc3ccc(F)cc3)c3c2CN(C(=O)c2ccc[nH]2)C[C@]3(C)C(N)=O)cc1C
Yes

Below 60% on Population Mitotic Cells (%)? Entry COc1ccc2c(c1)C(C(=O)N(Cc1ccc(N(C)C)cc1)c1ccc(C(C)C)cc1)CCC2.Cl (stereo not given)
Yes

Below 60% on Population Mitotic Cells (%)? Entry O=C(O)Cc1ccccc1Nc1c(Cl)cccc1Cl
Yes

Below 60% on Population Mitotic Cells (%)? Entry CN(C)c1ccnc2sc3c(=O)n(N4CCCCCC4)cnc3c12
Yes

Provenance of the data: ChEMBL document CHEMBL5058577
